Consider the following pIC50 data for Serine/threonine-protein kinase WNK3 (Homo sapiens), collected from several reports.
FYI, pIC50 means -log10 of a concentration in mol per litre.

Here's what some known entries look like.
structure: O=C(Nc1ccc(Nc2ccnc3[nH]c(=O)c4ccccc4c23)cc1)c1ccccc1
pIC50: 6.40
//
structure: C=CCn1c(=O)c2cnc(Nc3ccc(N4CCN(C)CC4)cc3)nc2n1-c1cccc(C(C)(C)O)n1
pIC50: 5.64

Reported pIC50 of CC(C)Oc1cc(-n2cnc3ccc(N[C@@H](C)c4ccc(F)cn4)nc32)n[nH]1 : 7.00
